Provide the reported Activity of each item.
target: Cholecystokinin receptor type A (Homo sapiens) (UniProt P32238); test: Agonist activity at human CCK1 receptor relative to cholecystokinin 8; assay type: functional
Sequence (P32238 whole entry): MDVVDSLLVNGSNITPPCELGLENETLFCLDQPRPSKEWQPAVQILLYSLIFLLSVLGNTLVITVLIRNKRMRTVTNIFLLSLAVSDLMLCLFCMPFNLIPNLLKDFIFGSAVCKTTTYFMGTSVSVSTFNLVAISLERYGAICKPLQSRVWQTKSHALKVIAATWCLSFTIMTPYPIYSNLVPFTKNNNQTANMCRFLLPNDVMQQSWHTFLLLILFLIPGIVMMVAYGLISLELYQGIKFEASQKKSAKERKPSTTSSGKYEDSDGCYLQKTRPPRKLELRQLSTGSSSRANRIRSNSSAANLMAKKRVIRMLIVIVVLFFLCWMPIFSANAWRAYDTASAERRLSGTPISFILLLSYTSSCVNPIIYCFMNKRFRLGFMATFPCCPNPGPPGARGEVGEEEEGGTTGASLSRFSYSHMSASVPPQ
Numbers only, in %.

Hi there! I need Activity for each item below, if you can.
1. CCOc1cccc(-n2cc(C(=O)N3CCN(c4cnc5ccccc5c4)C[C@H]3COC(C)=O)nc2-c2ccc(C)cc2)c1
2. CCOc1cccc(-n2cc(C(=O)N3CCN(c4cc(C(=O)O)c5ccccc5c4)C[C@H]3CNC(C)=O)nc2-c2ccc(C)cc2F)c1
3. CCOc1cccc(-n2cc(C(=O)N3CCN(c4cc(C(=O)O)c5ccccc5c4)C[C@H]3CNC(=O)NC)nc2-c2ccc(C)cc2F)c1
4. CCOc1cccc(-n2cc(C(=O)N3CCN(c4cnc5ccccc5c4)C[C@@H]3CNS(C)(=O)=O)nc2-c2ccc(C)cc2)c1

A)
[118, 70, 90, 100]

Hi there! I need Activity for each item below, if you can.
1. CCOc1cccc(-n2cc(C(=O)N3CCN(c4cc(C(=O)O)c5ccccc5c4)C[C@H]3CNS(C)(=O)=O)nc2-c2ccc(C)cc2F)c1
2. CCOc1cccc(-n2cc(C(=O)N3CCN(c4cnc5ccccc5c4)C[C@H]3C(=O)NC(C)C)nc2-c2ccc(C)cc2)c1
3. CCOc1cccc(-n2cc(C(=O)N3CCN(c4cnc5ccccc5c4)C[C@H]3CNC(C)=O)nc2-c2ccc(C)cc2)c1

A)
[97, 102, 104]
